- Tested on: K562 CRISPRi cells
- method.notes: Perturb-seq pooled growth measurement (sgRNA counts, growth phenotype γ, relative activity)
- Format: cell-based, human
- details: pooled growth phenotype γ of the Perturb-seq sgRNA, day 5, K562 CRISPRi cells
Please enter Satisfied where gamma_day5 is greater than or equal to -0.9, and Not satisfied where it is lower.

SEC61A1_ −_127771295.23-P1_03 (guide GGTACTGACGTGTCTCTCGG; listed as DNA, chemistry not fully specified)
Satisfied
ALDOA_ + _30077139.23-P1P2_06 (guide GGTCACCAGGATCCCTTCTG; listed as DNA, chemistry not fully specified)
Satisfied
GINS1_ −_25388381.23-P1P2_06 (guide GGACTAGAACGGAAGGAGTG; listed as DNA, chemistry not fully specified)
Not satisfied

Moving on to another substance below.
Ask: Would you say ALDOA_ + _30077139.23-P1P2_13 (guide GGTCACCAGGACCCCTTTTG; listed as DNA, chemistry not fully specified) shows gamma_day5 at minimum -0.9?
Reply: Satisfied
